Every entry's value here was drawn from ChEMBL document CHEMBL1201861.

Could you please report measured IC50 for the items listed next?
test system: HuP-T4; assay: cells; format: functional, cell-based, Homo sapiens; settings: hup-t4;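 also: cell viability assay measuring how much HuP-T4 cell growth is inhibited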
Description: SANGER: Inhibition of human HuP-T4 cell growth in a cell viability assay.
Report as a plain number; the unit µM is understood.

Req: Given CISPLATIN , state its recorded IC50.
Resp: 37.4

Req: Given BLEOMYCIN , state its recorded IC50.
Resp: 1.31

----------
tested on: YT; assay: cells; type: functional, cell-based, Homo sapiens; conditions: yt
Description: SANGER: Inhibition of human YT cell growth in a cell viability assay.
MEASUREMENT_NAME: IC50 (nM)
Report as a plain number; the unit nM is understood.

Req: Given BLEOMYCIN , state its recorded IC50.
Resp: 1320

----------
Could you please report measured pIC50 for the items listed next?
test system: SW872; experiment: cells; assay type: functional, cell-based, Homo sapiens; conditions: Homo sapiens, SW872;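 also: growth inhibition of SW872 cells, read out by a viability assay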
Description: SANGER: Inhibition of human SW872 cell growth in a cell viability assay.
Please report pIC50 as the negative decimal logarithm of the molar concentration, giving only the number.

Req: Given Oc1ccc2ccccc2c1SSc1c(O)ccc2ccccc12 , state its recorded pIC50.
Resp: 5.11

Req: Given O=C(O)c1ccc(-c2c[nH]c3ncc(-c4ccccc4)cc23)cc1C1CCCC1 [GSK-650394] , state its recorded pIC50.
Resp: 4.86

Req: Given N[C@@H](CSC(c1ccccc1)(c1ccccc1)c1ccccc1)C(=O)O [S-TRITYL-L-CYSTEINE] , state its recorded pIC50.
Resp: 6.10

Req: Given CC(C)c1ccccc1Cc1cc(C(=O)Nc2ccc(S(=O)(=O)c3ccccc3C(C)(C)C)cc2)c(O)c(O)c1O , state its recorded pIC50.
Resp: 7.23

----------
test system: SNU-C2B; assay: cells; assay type: functional, cell-based, Homo sapiens; details: Homo sapiens, SNU-C2B;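 also: cell viability readout used to measure compound-driven suppression of SNU-C2B cell proliferation, IC50 marking half-maximal growth inhibition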
Description: SANGER: Inhibition of human SNU-C2B cell growth in a cell viability assay.
Could you please report measured IC50 for the items listed next?

Req: Given COc1cc2ncnc(Nc3ccc(F)c(Cl)c3)c2cc1OCCCN1CCOCC1 [GEFITINIB] , state its recorded IC50.
Resp: > 500 nM

Req: Given CO[C@H]1C[C@@H]2CC[C@@H](C)[C@@](O)(O2)C(=O)C(=O)N2CCCC[C@H]2C(=O)O[C@H]([C@H](C)C[C@@H]2CC[C@@H](OC(=O)C(C)(CO)CO)[C@H](OC)C2)CC(=O)[C@H](C)/C=C(\C)[C@@H](O)[C@@H](OC)C(=O)[C@H](C)C[C@H](C)/C=C/C=C/C=C/1C [TEMSIROLIMUS] , state its recorded IC50.
Resp: > 200 nM

Req: Given COc1cc2ncn(-c3cc(OCc4ccccc4C(F)(F)F)c(C(N)=O)s3)c2cc1OC [GW843682X] , state its recorded IC50.
Resp: 7.53 nM

Req: Given C=C(c1ccc(C(=O)O)cc1)c1cc2c(cc1C)C(C)(C)CCC2(C)C [BEXAROTENE] , state its recorded IC50.
Resp: > 8000 nM

Req: Given CCN(CC)CCCCNc1ncc2cc(-c3cc(OC)cc(OC)c3)c(NC(=O)NC(C)(C)C)nc2n1 [PD-173074] , state its recorded IC50.
Resp: > 2000 nM

Req: Given COc1cc2c(Nc3ccc(NC(=O)c4ccccc4)cc3)ncnc2cc1OCCCN1CCOCC1 , state its recorded IC50.
Resp: > 4000 nM

----------
system: FaDu; assay: cells; format: functional, cell-based, Homo sapiens; details: fadu;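 also: cell viability readout of growth inhibition in FaDu cells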
Description: SANGER: Inhibition of human FADU cell growth in a cell viability assay.
MEASUREMENT_NAME: pIC50
Please report pIC50 as the negative decimal logarithm of the molar concentration, giving only the number.

Req: What reported pIC50 corresponds to BLEOMYCIN on FaDu?
Resp: 5.29

----------
test system: ABC-1; assay: cells; format: functional, cell-based, Homo sapiens; conditions: abc-1;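 also: growth inhibition of human ABC-1 cells, read out by a cell viability assay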
Description: SANGER: Inhibition of human ABC-1 cell growth in a cell viability assay.
MEASUREMENT_NAME: pIC50
Please report pIC50 as the negative decimal logarithm of the molar concentration, giving only the number.

Req: Given BLEOMYCIN , state its recorded pIC50.
Resp: 4.71

----------
tested on: BT-474; test: cells; format: functional, cell-based, Homo sapiens; conditions: Homo sapiens, BT-474
Description: SANGER: Inhibition of human BT-474 cell growth in a cell viability assay.
pIC50: −log10 of the molar value.
Could you please report measured pIC50 for the items listed next?

Req: Given COc1cccc2c1C(=O)c1c(O)c3c(c(O)c1C2=O)C[C@@](O)(C(=O)CO)C[C@@H]3O[C@H]1C[C@H](N)[C@H](O)[C@H](C)O1 [DOXORUBICIN] , state its recorded pIC50.
Resp: 6.11

Req: Given CO[C@H]1C[C@@H]2CC[C@@H](C)[C@@](O)(O2)C(=O)C(=O)N2CCCC[C@H]2C(=O)O[C@H]([C@H](C)C[C@@H]2CC[C@@H](OC(=O)C(C)(CO)CO)[C@H](OC)C2)CC(=O)[C@H](C)/C=C(\C)[C@@H](O)[C@@H](OC)C(=O)[C@H](C)C[C@H](C)/C=C/C=C/C=C/1C [TEMSIROLIMUS] , state its recorded pIC50.
Resp: < 6.70

Req: Given CC[C@H](CO)Nc1nc(NCc2ccccc2)c2ncn(C(C)C)c2n1 [SELICICLIB] , state its recorded pIC50.
Resp: < 4.80

Req: Given CC1(C)CNc2cc(NC(=O)c3cccnc3NCc3ccncc3)ccc21 [MOTESANIB] , state its recorded pIC50.
Resp: < 5.70

Req: Given COc1cc(-c2nn([C@H]3CC[C@H](N4CCN(C(C)=O)CC4)CC3)c3ncnc(N)c23)ccc1NC(=O)c1cc2ccccc2n1C , state its recorded pIC50.
Resp: < 5.29

Req: Given C=C(c1ccc(C(=O)O)cc1)c1cc2c(cc1C)C(C)(C)CCC2(C)C [BEXAROTENE] , state its recorded pIC50.
Resp: < 5.10

----------
tested on: SNU-387; assay: cells; format: functional, cell-based, Homo sapiens; details: snu-387
Description: SANGER: Inhibition of human SNU-387 cell growth in a cell viability assay.
MEASUREMENT_NAME: IC50 (nM)
Report as a plain number; the unit nM is understood.

Req: Given BLEOMYCIN , state its recorded IC50.
Resp: 925

----------
system: LCLC-97TM1; assay: cells; type: functional, cell-based, Homo sapiens; details: Homo sapiens, LCLC-97TM1;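 also: cell viability assay measuring growth inhibition of human LCLC-97TM1 cells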
Description: SANGER: Inhibition of human LCLC-97TM1 cell growth in a cell viability assay.
Where a name gives a salt, the structure may show the parent alone.
MEASUREMENT_NAME: pIC50
Please report pIC50 as the negative decimal logarithm of the molar concentration, giving only the number.

Req: Given COC1=CC(c2cc3ccccc3[nH]2)=N/C1=C\c1[nH]c(C)cc1C [OBATOCLAX MESYLATE] , state its recorded pIC50.
Resp: 7.25

Req: Given Cn1cnc2c(F)c(Nc3ccc(Br)cc3Cl)c(C(=O)NOCCO)cc21 , state its recorded pIC50.
Resp: 5.99

----------
test system: ES1; test: cells; assay type: functional, cell-based, Homo sapiens; conditions: Homo sapiens, ES1;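 also: growth inhibition of ES1 cells, read out with a cell viability assay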
Description: SANGER: Inhibition of human ES1 cell growth in a cell viability assay.
MEASUREMENT_NAME: IC50

Req: Given CCC/C=C/C=C/C(=O)O[C@H]1/C(=C/C(=O)OC)C[C@H]2C[C@H]([C@@H](C)O)OC(=O)C[C@H](O)C[C@@H]3C[C@H](OC(C)=O)C(C)(C)[C@](O)(C[C@@H]4C/C(=C/C(=O)OC)C[C@H](/C=C/C(C)(C)[C@]1(O)O2)O4)O3 , state its recorded IC50.
Resp: > 0.008 µM

Req: Given CS(=O)(=O)c1ccc(C(=O)Nc2ccc(Cl)c(-c3ccccn3)c2)c(Cl)c1 , state its recorded IC50.
Resp: > 10 µM

Req: Given Cc1ccc(-c2c(C(=O)CCl)n(CCCO)c3ncnc(N)c23)cc1 , state its recorded IC50.
Resp: > 4 µM

Req: Given CN(C)C(=N)NC(=N)N , state its recorded IC50.
Resp: > 20000 µM

Req: Given Nc1ccn([C@@H]2O[C@H](CO)[C@@H](O)C2(F)F)c(=O)n1 , state its recorded IC50.
Resp: < 0.004 µM

Req: Given Oc1ccc2ccccc2c1SSc1c(O)ccc2ccccc12 , state its recorded IC50.
Resp: > 32 µM

Req: Given N[C@@H](CSC(c1ccccc1)(c1ccccc1)c1ccccc1)C(=O)O , state its recorded IC50.
Resp: 1.64 µM

Req: Given CC1(C)CNc2cc(NC(=O)c3cccnc3NCc3ccncc3)ccc21 , state its recorded IC50.
Resp: > 2 µM

----------
tested on: IGR-1; assay: cells; format: functional, cell-based, Homo sapiens; details: Homo sapiens, IGR-1
Description: SANGER: Inhibition of human IGR-1 cell growth in a cell viability assay.
MEASUREMENT_NAME: pIC50
Please report pIC50 as the negative decimal logarithm of the molar concentration, giving only the number.

Req: Given Cc1cc([N+](=O)[O-])ccc1NS(=O)(=O)c1cc(Cl)ccc1Cl , state its recorded pIC50.
Resp: 5.70

Req: Given COc1cccc2c1C(=O)c1c(O)c3c(c(O)c1C2=O)C[C@@](O)(C(=O)CO)C[C@@H]3O[C@H]1C[C@H](N)[C@H](O)[C@H](C)O1 [DOXORUBICIN] , state its recorded pIC50.
Resp: 7.47

Req: Given CC(C)c1ccccc1Cc1cc(C(=O)Nc2ccc(S(=O)(=O)c3ccccc3C(C)(C)C)cc2)c(O)c(O)c1O , state its recorded pIC50.
Resp: 6.52

Req: Given Nc1ccn([C@@H]2O[C@H](CO)[C@@H](O)C2(F)F)c(=O)n1 [GEMCITABINE] , state its recorded pIC50.
Resp: 7.84
